# System name: CYP2A6 (Homo sapiens)
# Construct: pooled mixed-gender human liver microsomes; from tissue; host or cells: pooled mixed-gender human liver microsomes
# Sequence (P11509 1-494): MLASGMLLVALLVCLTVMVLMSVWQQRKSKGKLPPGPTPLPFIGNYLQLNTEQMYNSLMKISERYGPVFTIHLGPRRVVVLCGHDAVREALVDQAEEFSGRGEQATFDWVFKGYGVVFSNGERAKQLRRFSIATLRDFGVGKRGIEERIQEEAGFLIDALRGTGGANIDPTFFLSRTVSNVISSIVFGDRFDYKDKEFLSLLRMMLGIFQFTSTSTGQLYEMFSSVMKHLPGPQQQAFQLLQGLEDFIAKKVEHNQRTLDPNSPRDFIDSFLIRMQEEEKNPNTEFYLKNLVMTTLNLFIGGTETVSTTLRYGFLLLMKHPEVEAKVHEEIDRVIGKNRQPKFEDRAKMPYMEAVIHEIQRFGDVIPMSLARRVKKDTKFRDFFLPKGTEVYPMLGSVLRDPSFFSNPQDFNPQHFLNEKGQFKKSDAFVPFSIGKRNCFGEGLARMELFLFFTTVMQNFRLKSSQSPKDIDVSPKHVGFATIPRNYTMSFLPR
# Assay explanation: CYP2A6 inhibition in pooled human liver microsomes
# Format: in vitro ADME
# Condition parameters: both sexes, human, pooled human liver microsomes, probe coumarin, Coumarin 7-hydroxylation; 30-min preincubation; 49.5 µM; read-out: Time-dependent inhibition, maximum inhibition at 49.5 µM
Property: inhibition at 49.5 µM (%)
Please reply with the bare figure in % and do not write the unit itself.

For reference, reported inhibition at 49.5 µM for CN1CCC(COc2cnc(-c3cccc(Cn4nc(-c5cccc(C#N)c5)ccc4=O)c3)nc2)CC1 stands at 52
